# TARGET UNDER TEST: human androgen receptor (Homo sapiens, UniProt P10275)
# Construct: expressed in transfected cells; host or cells: Chinese hamster ovary (CHO) cells, line CHO-AR-pMMTV-LUC 1G12-A5-CA
# Sequence (P10275 whole entry): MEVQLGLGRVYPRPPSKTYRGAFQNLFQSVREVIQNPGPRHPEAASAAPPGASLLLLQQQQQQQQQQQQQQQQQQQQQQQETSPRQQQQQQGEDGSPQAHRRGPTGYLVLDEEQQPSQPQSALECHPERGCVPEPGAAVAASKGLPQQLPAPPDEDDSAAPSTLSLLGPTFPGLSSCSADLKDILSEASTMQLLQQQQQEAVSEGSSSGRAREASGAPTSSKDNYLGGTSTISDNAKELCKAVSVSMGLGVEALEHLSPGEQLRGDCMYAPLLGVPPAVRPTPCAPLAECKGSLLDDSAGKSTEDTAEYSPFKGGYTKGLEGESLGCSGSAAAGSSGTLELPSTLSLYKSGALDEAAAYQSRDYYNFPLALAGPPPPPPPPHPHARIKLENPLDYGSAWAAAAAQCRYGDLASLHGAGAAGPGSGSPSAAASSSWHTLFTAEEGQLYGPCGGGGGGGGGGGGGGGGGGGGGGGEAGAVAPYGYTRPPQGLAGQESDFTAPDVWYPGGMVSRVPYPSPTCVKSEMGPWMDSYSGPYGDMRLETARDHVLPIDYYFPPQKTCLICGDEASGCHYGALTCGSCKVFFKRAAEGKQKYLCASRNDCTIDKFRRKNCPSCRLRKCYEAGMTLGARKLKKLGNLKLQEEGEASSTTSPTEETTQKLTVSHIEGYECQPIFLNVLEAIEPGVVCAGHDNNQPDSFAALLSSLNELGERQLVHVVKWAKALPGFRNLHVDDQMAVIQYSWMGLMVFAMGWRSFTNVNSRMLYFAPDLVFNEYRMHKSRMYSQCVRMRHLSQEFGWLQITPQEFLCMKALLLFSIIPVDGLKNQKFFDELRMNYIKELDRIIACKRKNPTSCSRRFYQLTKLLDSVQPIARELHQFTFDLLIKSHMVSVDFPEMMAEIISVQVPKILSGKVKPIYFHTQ
# EXPERIMENT NOTES: Androgenic activity (potency) in vitro bioassay, CHO-AR-pMMTV-LUC 1G12-A5-CA cells, luciferase reporter
# Assay type: cell-based
# CONDITIONS USED: CHO cells stably transfected with human androgen receptor and MMTV-luciferase reporter; in the presence of 0.1 μmol/l onapristone; potencies expressed as percentage of DHT activity (maximal efficacy with 100 nmol/l DHT set as 100%)
# Protocol: The androgenic activity (potency) of the compounds of the invention was determined in an in vitro bioassay of Chinese hamster ovary (CHO) cells stably transfected with the human androgen receptor expression plasmid and a reporter plasmid in which the MMTV promoter is linked to the luciferase reporter gene. […] The androgen receptor activity of compounds was determined in the presence of 0.1 μmol/l onapristone. […] The potencies are expressed as percentage of DHT activity.
1.0 means recorded Potency (%) is 10% or above; 0.0 means it is below 10%.

CNc1ccc2c(Sc3ccccc3[N+](=O)[O-])cn(Cc3cc(C#N)cc(C#N)c3)c2c1 [Example 5s] = 0.0
CNc1ccc2c(Sc3ccccc3C(=O)OC)cn(Cc3cc(F)cc(F)c3)c2c1 [Example 9] = 0.0
COC(=O)CNc1ccc2c(Sc3ccccc3[N+](=O)[O-])cn(Cc3cc(F)cc(F)c3)c2c1 [Example 22e] = 0.0
CNc1ccc2c(Sc3ccccc3[N+](=O)[O-])cn(Cc3cccnc3)c2c1 [Example 3] = 1.0
N#Cc1ccccc1Sc1cn(Cc2cc(F)cc(F)c2)c2cc(NCCO)ccc12 [Example 21h] = 0.0

Ask: For this compound, is measured Potency (%) 10% or higher? CNc1ccc2c(Sc3ccccc3[N+](=O)[O-])cn(Cc3ccncc3)c2c1 [Example 5e]
Result: 1.0

Ask: Consider next the compound COCCNc1ccc2c(Sc3ccccc3C#N)cn(Cc3cc(F)cc(F)c3)c2c1 [Example 21i] in the same way.
Result: 0.0

Ask: Consider next the compound CNc1ccc2c(Sc3ccccc3[N+](=O)[O-])cn(Cc3ccon3)c2c1 [Example 5k] in the same way.
Result: 1.0

Ask: Consider next the compound CNc1ccc2c(Sc3ccccn3)cn(Cc3cc(F)cc(F)c3)c2c1 [Example 11] in the same way.
Result: 0.0

Ask: Consider next the compound O=[N+]([O-])c1ccccc1Sc1cn(Cc2cc(F)cc(F)c2)c2cc(NCC3CC3)ccc12 [Example 22d] in the same way.
Result: 0.0

Ask: Consider next the compound CNc1ccc2c(Sc3ccccc3[N+](=O)[O-])cn(Cc3ccno3)c2c1 [Example 5n] in the same way.
Result: 1.0

Ask: Consider next the compound CNc1ccc2c(S(=O)(=O)c3ccccc3[N+](=O)[O-])cn(Cc3ccccn3)c2c1 [Example 14] in the same way.
Result: 0.0

Ask: Consider next the compound CCCNc1ccc2c(Sc3ccccc3[N+](=O)[O-])cn(Cc3cc(F)cc(F)c3)c2c1 [Example 22a] in the same way.
Result: 0.0

Ask: Consider next the compound CNc1ccc2c(Sc3ccccc3[N+](=O)[O-])cn(Cc3ncccn3)c2c1 [Example 5f] in the same way.
Result: 0.0

Ask: Consider next the compound CC(=O)CNc1ccc2c(Sc3ccccc3[N+](=O)[O-])cn(Cc3cc(F)cc(F)c3)c2c1 [Example 21a] in the same way.
Result: 0.0

Ask: Consider next the compound CNc1ccc2c(Sc3ccccc3C#N)cn(Cc3ccccn3)c2c1 [Example 7] in the same way.
Result: 0.0

Ask: Consider next the compound CNc1ccc2c(S(=O)(=O)c3ccccc3[N+](=O)[O-])cn(Cc3cc(F)cc(F)c3)c2c1 [Example 13] in the same way.
Result: 1.0

Ask: Consider next the compound CNc1ccc2c(Sc3ccccc3[N+](=O)[O-])cn(Cc3ncco3)c2c1 [Example 5m] in the same way.
Result: 0.0

Ask: Consider next the compound CN(C)c1ccc2c(Sc3ccccc3[N+](=O)[O-])cn(Cc3cccnc3)c2c1 [Example 19e] in the same way.
Result: 0.0

Ask: Consider next the compound CNc1ccc2c(Sc3ccccc3[N+](=O)[O-])cn(Cc3cncnc3)c2c1 [Example 5g] in the same way.
Result: 1.0

Ask: Consider next the compound O=[N+]([O-])c1ccccc1Sc1cn(Cc2cc(F)cc(F)c2)c2cc(NCC(F)(F)F)ccc12 [Example 21k] in the same way.
Result: 0.0

Ask: Consider next the compound CNc1ccc2c(Sc3ccccc3[N+](=O)[O-])cn(Cc3cccc(C#N)c3)c2c1 [Example 5r] in the same way.
Result: 1.0

Ask: Consider next the compound C=C(C)CNc1ccc2c(Sc3ccccc3[N+](=O)[O-])cn(Cc3cc(F)cc(F)c3)c2c1 [Example 22c] in the same way.
Result: 0.0

Ask: Consider next the compound CNc1ccc2c(Sc3ccccc3C#N)cn(Cc3cc(F)cc(F)c3)c2c1 [Example 6] in the same way.
Result: 1.0
